- target entity: Bombyx mori EcR (VP16 fusion, switch construct CVBE) with 6XEcRE LacZ reporter (Bombyx mori, UniProt P49881)
- Construct: expressed in transfected cells; host or cells: Human 293 kidney (HEK-293) cells, retrovirally infected, clone Z3
- Sequence (P49881 86-606 limits assumed): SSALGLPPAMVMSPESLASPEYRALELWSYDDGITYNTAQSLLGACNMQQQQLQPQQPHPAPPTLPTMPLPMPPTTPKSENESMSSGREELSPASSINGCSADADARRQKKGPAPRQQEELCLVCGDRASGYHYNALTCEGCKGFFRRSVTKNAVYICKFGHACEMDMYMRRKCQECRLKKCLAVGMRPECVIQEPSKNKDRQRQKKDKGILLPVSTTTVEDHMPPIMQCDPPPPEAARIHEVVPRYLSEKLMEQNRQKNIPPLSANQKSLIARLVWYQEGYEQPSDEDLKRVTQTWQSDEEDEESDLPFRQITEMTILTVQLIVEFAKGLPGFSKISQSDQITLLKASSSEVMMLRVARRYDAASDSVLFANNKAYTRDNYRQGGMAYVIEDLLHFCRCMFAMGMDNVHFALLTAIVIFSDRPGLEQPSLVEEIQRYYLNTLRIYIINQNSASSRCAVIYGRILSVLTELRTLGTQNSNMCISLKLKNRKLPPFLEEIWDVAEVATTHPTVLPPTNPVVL
- Sequence (P19793 whole entry partner, the tested form may be a part): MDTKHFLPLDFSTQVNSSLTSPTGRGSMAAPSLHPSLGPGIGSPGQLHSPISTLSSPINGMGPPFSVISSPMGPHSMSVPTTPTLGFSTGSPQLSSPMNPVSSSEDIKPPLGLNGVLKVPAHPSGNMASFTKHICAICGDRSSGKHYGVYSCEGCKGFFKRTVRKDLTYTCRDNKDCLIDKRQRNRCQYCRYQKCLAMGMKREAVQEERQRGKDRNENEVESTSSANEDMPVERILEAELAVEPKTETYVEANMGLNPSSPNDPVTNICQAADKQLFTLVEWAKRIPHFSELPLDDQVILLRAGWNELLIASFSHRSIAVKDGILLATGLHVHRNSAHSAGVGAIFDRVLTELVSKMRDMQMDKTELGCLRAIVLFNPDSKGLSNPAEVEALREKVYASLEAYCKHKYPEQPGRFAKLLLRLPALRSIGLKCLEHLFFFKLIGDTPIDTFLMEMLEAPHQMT
- test summary: Z3 assay: β-galactosidase (LacZ) reporter gene fold induction in stably transformed human 293 kidney cells (clone Z3)
- Format: cell-based
- condition set: maximum fold induction at any concentration relative to that of GS-E ligand
Output 1.0 for Z3 Rel Max FI not less than 0.4; output 0.0 otherwise.

Examples from the recorded data:
CCc1c(OC)cccc1C(=O)NC1(C(=O)c2ccccc2)CCCC1 : 0.0
Cc1ccccc1C(=O)NC1(C(=O)c2ccccc2)CCCC1 : 0.0

I'd appreciate it if you could say whether `COc1cc(C(=O)C2(NC(=O)c3cccc(OC)c3C)CCCC2)cc(OC)c1C` has Z3 Rel Max FI at least equal to 0.4.
0.0

I'd appreciate it if you could say whether `CCc1ccc(C(=O)NC2(C(=O)c3cc(C)cc(C)c3)CCCCC2)cc1` has Z3 Rel Max FI at least equal to 0.4.
1.0

I'd appreciate it if you could say whether `COc1cccc(C(=O)NC2(C(=O)c3cccc(C)c3)CCCC2)c1C` has Z3 Rel Max FI at least equal to 0.4.
1.0

I'd appreciate it if you could say whether `CCC(CC)(NC(=O)c1cccc(OC)c1C)C(=O)c1ccccc1OC` has Z3 Rel Max FI at least equal to 0.4.
0.0

I'd appreciate it if you could say whether `COc1cccc(C(=O)NC2(C(=O)c3cc(C)cc(C)c3)CC2)c1C` has Z3 Rel Max FI at least equal to 0.4.
0.0

I'd appreciate it if you could say whether COc1cccc(C(=O)NC(C)(Cc2ccccc2)C(=O)c2cc(C)cc(C)c2)c1C (stereo not shown) has Z3 Rel Max FI at least equal to 0.4.
0.0

I'd appreciate it if you could say whether COc1cccc(C(=O)NC(C)(C(=O)c2ccccc2)C(C)C)c1C (stereo not shown) has Z3 Rel Max FI at least equal to 0.4.
0.0

I'd appreciate it if you could say whether `COc1cccc(C(=O)NC2(C(=O)c3ccccc3)CCCCC2)c1C` has Z3 Rel Max FI at least equal to 0.4.
1.0

I'd appreciate it if you could say whether `CCc1c(OC)cccc1C(=O)NC1(C(=O)c2cc(C)cc(C)c2)CCCC1` has Z3 Rel Max FI at least equal to 0.4.
1.0

I'd appreciate it if you could say whether `COc1cccc(C(=O)NC2(C(=O)c3cccc(C)c3)CCC2)c1C` has Z3 Rel Max FI at least equal to 0.4.
0.0
